Taken from patent US20090304724A1.

# reported pKi; entries follow
- tested system: human growth hormone secretagogue receptor (human) (UniProt Q92847)
- Sequence (Q92847 whole entry): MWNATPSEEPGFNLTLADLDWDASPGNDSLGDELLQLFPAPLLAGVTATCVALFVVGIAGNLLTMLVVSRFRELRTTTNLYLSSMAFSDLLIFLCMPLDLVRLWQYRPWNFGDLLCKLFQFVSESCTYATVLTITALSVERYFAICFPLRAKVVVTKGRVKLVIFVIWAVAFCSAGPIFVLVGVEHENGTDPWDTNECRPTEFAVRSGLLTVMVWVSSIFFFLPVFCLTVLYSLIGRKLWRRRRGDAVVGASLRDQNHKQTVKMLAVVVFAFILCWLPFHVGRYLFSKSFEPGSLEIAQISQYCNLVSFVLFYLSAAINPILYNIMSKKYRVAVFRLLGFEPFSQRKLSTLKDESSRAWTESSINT
- test: (125I)ghrelin displacement, hGHS-R CHO-K1 membranes
Please keep in mind that pKi is minus log10 of the molar concentration; only the number is needed.

Study these solved cases before continuing.
1. Inp-D-2-Nal-D-Trp-Phe-Lys-NH2 (peptide); 9.52
2. H-Inp-D-2-Nal-D-Trp-Taz-Lys-NH2 (peptide); 9.10
3. H-Inp-D-Bal-D-Trp-Phe-Lys-NH2 (peptide); 9.48

Query block: Reported pKi, substance H-Apc-D-Bal-D-2-Nal-Phe-Lys-NH2 (peptide) : ____
Result block: 9.17

Query block: Reported pKi, substance H-Apc-D-Bal-D-Trp-Taz-Lys-NH2 (peptide) : ____
Result block: 9.30

Query block: Reported pKi, substance H-Inp-D-Bal-D-Trp-Taz-Apc-NH2 (peptide) : ____
Result block: 9.08

Query block: Reported pKi, substance H-Apc-D-Bal-D-Trp-Phe-Apc-NH2 (peptide) : ____
Result block: 9.15

Query block: Reported pKi, substance H-Inp-D-Bal-D-Trp-Taz-Lys-NH2 (peptide) : ____
Result block: 9.28
